This collection of values is drawn from the supplement of paper PMC9170038.

# Tested on: MS2 coat protein
# assay_procedure: apparent KD of MS2 coat protein; designed switch direction (-1 OFF switch, 1 ON switch): 1; higher = weaker reporter binding
# measurement_context: input ligand: none
Items are presented alongside their recorded apparent KD of MS2 coat protein.
Response body: numeric value in nM, unit text excluded.

GCAGGACGAUAAAACAUCUCACAUGAGGAUCACCCAUGUCGUGAGGAUAUGGAUCCUAAUUGGAUCCAGAAGGCAUGGUCCUGC [Fiskers NG3ss - 24] (Eterna round: R96, puzzle: Same State NG 3) : 20.9

Suppose we examine the sequence UAAAGCAAGUCAGGAUAUGGGAAAGGAAGUGUACUAGAAGGGACUUGUAGGAACAUGAGGAUCACCCAUGUACCGCGGACUAAA [PowerStrip SSNG 1.7] (Eterna round: R96, puzzle: Same State NG 1) ; what apparent KD of MS2 coat protein value has been reported? 47.8
